- study-target: Human CDK7/CycH/MAT1 (Homo sapiens (Human), UniProt P50613)
- Sequence (P50613 whole entry): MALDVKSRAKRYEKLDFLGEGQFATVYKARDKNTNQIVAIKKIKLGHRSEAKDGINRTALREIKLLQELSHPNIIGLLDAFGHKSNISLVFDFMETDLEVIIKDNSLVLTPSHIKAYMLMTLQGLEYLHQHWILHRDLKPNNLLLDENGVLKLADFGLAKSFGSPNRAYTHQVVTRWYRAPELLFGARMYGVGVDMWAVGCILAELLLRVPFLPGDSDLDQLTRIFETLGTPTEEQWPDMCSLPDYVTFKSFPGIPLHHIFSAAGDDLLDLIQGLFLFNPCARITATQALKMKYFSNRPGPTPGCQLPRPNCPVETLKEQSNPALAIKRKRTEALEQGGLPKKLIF
- Sequence (P51946 whole entry partner): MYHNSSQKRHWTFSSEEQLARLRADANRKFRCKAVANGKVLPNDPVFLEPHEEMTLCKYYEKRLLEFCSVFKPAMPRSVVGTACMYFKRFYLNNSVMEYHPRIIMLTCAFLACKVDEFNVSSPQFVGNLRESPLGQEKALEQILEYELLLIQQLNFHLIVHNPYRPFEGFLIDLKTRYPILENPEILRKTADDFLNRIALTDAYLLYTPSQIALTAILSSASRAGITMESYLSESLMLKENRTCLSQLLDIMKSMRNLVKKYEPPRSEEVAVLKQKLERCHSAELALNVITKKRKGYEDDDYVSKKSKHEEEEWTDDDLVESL
- Sequence (P51948 whole entry partner): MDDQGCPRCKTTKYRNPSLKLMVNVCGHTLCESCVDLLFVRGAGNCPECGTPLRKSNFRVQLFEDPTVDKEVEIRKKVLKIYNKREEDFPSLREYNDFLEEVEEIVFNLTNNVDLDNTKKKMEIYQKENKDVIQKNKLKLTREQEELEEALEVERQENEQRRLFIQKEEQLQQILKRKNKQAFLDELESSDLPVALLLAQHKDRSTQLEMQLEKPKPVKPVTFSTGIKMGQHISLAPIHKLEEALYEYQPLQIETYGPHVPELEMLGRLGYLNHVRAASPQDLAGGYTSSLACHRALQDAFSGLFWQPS
- measurement-description: Radiometric protein kinase assay (33PanQinase Activity Assay), CDK7
- measurement-context: ATP 3 μM
property-measured: IC50 (nM)

(I) N#Cc1cnn2c(NCc3ccc(-c4ccccc4)cc3)cc(NC[C@H]3CCNC[C@@H]3O)nc12
(II) O[C@H]1CNCC[C@@H]1CNc1cc(NCc2ccc(-c3ccccc3)cn2)n2ncc(C3CC3)c2n1
Input pair: I , II . Output: entry with lower IC50. Identify your pick by its label. I
(I: 344 nM, II: 530 nM)

====

- study-target: Human CDK12 wt/CycK (Homo sapiens (Human))
- Sequence (Q9NYV4 whole entry): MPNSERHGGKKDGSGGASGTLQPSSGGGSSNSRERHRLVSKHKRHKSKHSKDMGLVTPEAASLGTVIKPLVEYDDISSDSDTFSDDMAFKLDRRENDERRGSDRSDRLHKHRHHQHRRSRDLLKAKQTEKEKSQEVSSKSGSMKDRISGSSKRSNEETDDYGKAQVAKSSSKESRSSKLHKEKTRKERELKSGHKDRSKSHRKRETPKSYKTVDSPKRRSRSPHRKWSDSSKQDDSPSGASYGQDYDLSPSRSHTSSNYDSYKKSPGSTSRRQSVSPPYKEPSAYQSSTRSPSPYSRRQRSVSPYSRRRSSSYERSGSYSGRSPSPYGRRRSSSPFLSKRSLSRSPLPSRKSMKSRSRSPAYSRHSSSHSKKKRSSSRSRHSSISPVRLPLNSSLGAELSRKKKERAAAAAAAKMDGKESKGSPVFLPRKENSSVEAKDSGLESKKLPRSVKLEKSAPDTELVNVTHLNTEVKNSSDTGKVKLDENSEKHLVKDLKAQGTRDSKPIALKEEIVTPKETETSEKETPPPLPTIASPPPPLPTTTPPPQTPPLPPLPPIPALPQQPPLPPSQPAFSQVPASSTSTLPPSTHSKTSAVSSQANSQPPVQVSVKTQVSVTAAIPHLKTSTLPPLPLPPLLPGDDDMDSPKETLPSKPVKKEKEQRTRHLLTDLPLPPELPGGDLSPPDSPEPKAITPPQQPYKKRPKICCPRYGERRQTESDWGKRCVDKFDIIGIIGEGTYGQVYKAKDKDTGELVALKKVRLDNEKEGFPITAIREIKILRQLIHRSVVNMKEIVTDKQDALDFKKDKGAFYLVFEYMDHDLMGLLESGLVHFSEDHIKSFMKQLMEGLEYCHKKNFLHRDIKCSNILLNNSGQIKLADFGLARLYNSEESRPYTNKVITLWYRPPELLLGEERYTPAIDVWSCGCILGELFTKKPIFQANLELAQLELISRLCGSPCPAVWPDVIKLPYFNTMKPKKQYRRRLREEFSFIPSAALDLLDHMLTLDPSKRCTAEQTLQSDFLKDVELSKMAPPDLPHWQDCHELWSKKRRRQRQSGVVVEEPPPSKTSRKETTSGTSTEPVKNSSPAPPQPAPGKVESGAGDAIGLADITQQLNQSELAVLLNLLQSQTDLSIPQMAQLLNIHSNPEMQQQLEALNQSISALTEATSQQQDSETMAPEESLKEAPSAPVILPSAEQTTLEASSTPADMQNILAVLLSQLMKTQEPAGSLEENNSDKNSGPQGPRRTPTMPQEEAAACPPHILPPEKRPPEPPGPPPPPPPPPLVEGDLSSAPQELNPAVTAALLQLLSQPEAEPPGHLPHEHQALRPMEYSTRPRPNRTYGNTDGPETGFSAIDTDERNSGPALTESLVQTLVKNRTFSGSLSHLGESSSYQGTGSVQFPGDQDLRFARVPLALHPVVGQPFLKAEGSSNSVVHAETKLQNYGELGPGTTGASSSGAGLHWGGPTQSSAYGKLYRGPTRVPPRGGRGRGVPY
- Sequence (O75909 whole entry partner): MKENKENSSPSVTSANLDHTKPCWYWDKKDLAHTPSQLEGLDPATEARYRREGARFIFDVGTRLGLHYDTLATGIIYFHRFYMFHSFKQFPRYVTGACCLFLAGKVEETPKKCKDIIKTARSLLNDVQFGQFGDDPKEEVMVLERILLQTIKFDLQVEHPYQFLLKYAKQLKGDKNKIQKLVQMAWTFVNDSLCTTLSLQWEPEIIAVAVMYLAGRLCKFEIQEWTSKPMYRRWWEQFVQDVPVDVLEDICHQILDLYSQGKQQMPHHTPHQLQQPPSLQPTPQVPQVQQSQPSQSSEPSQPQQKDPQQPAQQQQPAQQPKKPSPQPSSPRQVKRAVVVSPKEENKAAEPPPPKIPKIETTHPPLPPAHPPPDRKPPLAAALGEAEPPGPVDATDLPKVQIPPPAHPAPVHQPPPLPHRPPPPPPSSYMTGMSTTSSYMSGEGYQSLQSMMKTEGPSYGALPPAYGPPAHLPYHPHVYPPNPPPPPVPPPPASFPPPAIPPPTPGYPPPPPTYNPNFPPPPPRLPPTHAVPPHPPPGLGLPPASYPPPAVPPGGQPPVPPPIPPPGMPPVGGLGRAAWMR
- measurement-description: Radiometric protein kinase assay (33PanQinase Activity Assay), CDK12
- Format: biochemical
- measurement-context: read-out: CKD12 Biochemical Potency IC50
property-measured: IC50 (nM)

The cases that follow already have their IC50 on record.
In [3]: df
Out[3]:
                                smiles_text  property_measured  quantitative_readout
0  CO[C@H]1CNCC[C@@H]1CNc1cc(NCc2ccc(-c3ccccn3)cc2)n2ncc(C3CC3)c2n1               IC50                   503
1  N#Cc1cnn2c(NCc3ccc(-c4ccccc4)cc3F)cc(N[C@H]3CCNC3)nc12               IC50                    40
2  CCc1cnn2c(NCc3ccc(-c4ccccc4)cc3)cc(NC[C@H]3CCNC[C@@H]3O)nc12               IC50                    44

(P) c1cnn(-c2ccc(CNc3cc(N[C@H]4CCNC4)nc4c(C5CC5)cnn34)cc2)c1
(Q) CC(C)c1cnn2c(NCc3ccc(-c4ccncc4)cc3)cc(NC[C@H]3CCNC[C@@H]3O)nc12
(R) c1ccc(-c2ccc(CNc3cc(O[C@@H]4CCNC4)nc4c(C5CC5)cnn34)cc2)nc1
(S) N[C@H]1CC(=O)N(c2cc(NCc3ccc(-c4ccccn4)cc3)n3ncc(C4CC4)c3n2)C1
(T) O[C@H]1CNCC[C@@H]1CNc1cc(NCc2ccc(-c3ccccc3)cc2F)n2ncc(C3CC3)c2n1
Hey, quick one: sort these by IC50, top value first please. Enter labels, ranked according to the request. S, P, T, R, Q
